EXPERIMENTAL_TARGET: EEF2K (human) (UniProt O00418)
Sequence (O00418 whole entry, looked up): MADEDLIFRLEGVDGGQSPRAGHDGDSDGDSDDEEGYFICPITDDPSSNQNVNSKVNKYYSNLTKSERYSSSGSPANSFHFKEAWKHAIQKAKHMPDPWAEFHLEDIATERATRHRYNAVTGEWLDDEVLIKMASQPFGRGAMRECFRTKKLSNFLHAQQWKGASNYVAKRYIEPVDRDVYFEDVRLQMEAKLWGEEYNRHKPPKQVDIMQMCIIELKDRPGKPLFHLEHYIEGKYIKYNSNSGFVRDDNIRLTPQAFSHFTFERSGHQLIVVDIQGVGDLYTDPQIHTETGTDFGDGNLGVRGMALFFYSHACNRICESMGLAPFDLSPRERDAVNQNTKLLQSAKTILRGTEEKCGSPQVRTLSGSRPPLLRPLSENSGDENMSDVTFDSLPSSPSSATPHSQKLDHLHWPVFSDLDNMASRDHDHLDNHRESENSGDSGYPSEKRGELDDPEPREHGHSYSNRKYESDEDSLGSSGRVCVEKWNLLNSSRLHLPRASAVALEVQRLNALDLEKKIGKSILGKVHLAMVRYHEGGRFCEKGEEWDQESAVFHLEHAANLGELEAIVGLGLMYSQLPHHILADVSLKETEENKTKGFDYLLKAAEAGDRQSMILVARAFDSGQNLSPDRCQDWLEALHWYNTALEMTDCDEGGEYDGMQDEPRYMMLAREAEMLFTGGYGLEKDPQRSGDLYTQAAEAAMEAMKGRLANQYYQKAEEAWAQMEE
COND: compound 10.0 µM
PROPERTY_LABEL: per cent of control (%)
Expressed in %, but write only the number.

Please fill in: per cent of control reported for `COC(=O)Nc1ccc(-c2nc(N3CCOCC3)c3cnn(C4CCN(C(=O)OC)CC4)c3n2)cc1` = 106

Please fill in: per cent of control reported for `CCC(=O)N1CCN(c2ccc(-n3c(=O)ccc4cnc5ccc(-c6cnc7ccccc7c6)cc5c43)cc2C(F)(F)F)CC1` = 111

Please fill in: per cent of control reported for `COc1ccc(-c2ccc3c(N4CCOCC4)nc(N4C[C@@H](C)O[C@@H](C)C4)nc3n2)cc1CO` = 108

Please fill in: per cent of control reported for `CC(C)n1nc(-c2cc3cc(O)ccc3[nH]2)c2c(N)ncnc21` = 106
